Documented inhibition across a set of compounds
- studyTarget: Histone deacetylase (Homo sapiens) (UniProt Q13547+O15379+Q9UBN7+Q92769+Q9UQL6+Q8WUI4+Q9BY41+Q96DB2+P56524+Q9UKV0+Q969S8)
- testParameters: HeLa, at 10 µM
- Description: Inhibition of HDAC in human HeLa cells at 10 uM after 15 mins
Kindly provide the numeric value in % only, without the unit symbol.

# count of solved cases: 2
                                compound  observedmeasurement
0  Nc1ccccc1-c1cc(CCCCC(=O)Nc2ccccc2)on1                  0.5
1          O=C(CCCCc1cc(CS)no1)Nc1ccccc1                   80

Recorded result, O=C(CCCCc1cc(Cc2nn[nH]n2)no1)Nc1ccccc1 , inhibition: 5

Recorded result, O=C(CCCCc1cc(C(=O)O)no1)Nc1ccccc1 , inhibition: 0.5

Recorded result, O=C(CCCCc1cc(CO)no1)Nc1ccccc1 , inhibition: 0

Recorded result, NNC(=O)c1cc(CCCCC(=O)Nc2ccccc2)on1 , inhibition: 8

Recorded result, O=C(CCCCc1cc(C(=O)NO)no1)Nc1ccccc1 , inhibition: 78.5

----------
Documented inhibition across a set of compounds
- studyTarget: Histone deacetylase (Homo sapiens) (UniProt Q13547+O15379+Q9UBN7+Q92769+Q9UQL6+Q8WUI4+Q9BY41+Q96DB2+P56524+Q9UKV0+Q969S8)
- testParameters: HeLa, at 1 µM
- Description: Inhibition of HDAC in human HeLa cells at 1 uM after 15 mins
Kindly provide the numeric value in % only, without the unit symbol.

# count of solved cases: 5
>>> df
                                   compound  measuredproperty  unitofmeasurement  observedmeasurement
0             O=C(CCCCc1cc(CS)no1)Nc1ccccc1        inhibition                  %                   22
1         O=C(CCCCc1cc(C(=O)O)no1)Nc1ccccc1        inhibition                  %                    0
2         O=C(CCCCc1cc(/C=N/O)no1)Nc1ccccc1        inhibition                  %                 0.75
3  O=C(CCCCC1CC(C(=O)NO)=NO1)Nc1ccccc1 (stereo not drawn)        inhibition                  %                 16.8
4             O=C(CCCCc1cc(CO)no1)Nc1ccccc1        inhibition                  %                    0

Recorded result, O=C(CCCC1CC(C(=O)NO)=NO1)Nc1ccccc1 (stereo not drawn) , inhibition: 9.75

Recorded result, Nc1cc(CCCCC(=O)Nc2ccccc2)on1 , inhibition: 0

Recorded result, O=C(CCCc1cc(C(=O)NO)no1)Nc1ccccc1 , inhibition: 23.8

Recorded result, O=C(CCCCc1cc(-c2ccccc2O)no1)Nc1ccccc1 , inhibition: 0

Recorded result, O=C(CCCCc1cc(C(=O)NO)no1)Nc1ccccc1 , inhibition: 26

Recorded result, O=C(CCCCc1cc(Cc2nn[nH]n2)no1)Nc1ccccc1 , inhibition: 0

Recorded result, Nc1ccccc1-c1cc(CCCCC(=O)Nc2ccccc2)on1 , inhibition: 0

Recorded result, NNC(=O)c1cc(CCCCC(=O)Nc2ccccc2)on1 , inhibition: 0
